Data origin: paper PMC5910394

- EXPERIMENTAL SYSTEM: memAb anti-HER2
- PROCEDURE TEXT: SPR binding kinetics of meditope variants to immobilized memAb anti-HER2
- CONDITIONS: SPR, 25°C, n=1
QUANTITY: kd (s⁻¹)
Form entry: value (s⁻¹) — number only.

Request the reported kd associated with CC(C)C[C@@H]1NC(=O)[C@H](CCCNC(=N)N)NC(=O)[C@H](CCCNC(=N)N)NC(=O)[C@H]([C@@H](C)O)NC(=O)[C@H](CO)NC(=O)[C@H](CC(C)C)NC(=O)[C@H](CC(=O)O)NC(=O)[C@H](Cc2ccccc2)NC(=O)[C@H](CCC(N)=O)NC(=O)CCSSC[C@@H](C(=O)O)NC(=O)[C@H](CCCCN)NC1=O
0.018

One more molecule: CC(C)C[C@@H]1NC(=O)[C@H](CCCNC(=N)N)NC(=O)[C@H](CCCNC(=N)N)NC(=O)[C@H]([C@@H](C)O)NC(=O)[C@H](CO)NC(=O)[C@H](CC(C)C)NC(=O)[C@H](CC(=O)O)NC(=O)[C@H](Cc2ccc(O)cc2)NC(=O)[C@H](CCC(N)=O)NC(=O)[C@@H](N)CSSC[C@@H](C(=O)O)NC(=O)[C@H](CCCCN)NC1=O
0.11

What about this molecule? CC(C)C[C@@H]1NC(=O)[C@H](C)NC(=O)[C@H](CCCNC(=N)N)NC(=O)[C@H](CO)NC(=O)[C@H](CO)NC(=O)[C@H](CC(C)C)NC(=O)[C@H](CC(N)=O)NC(=O)[C@H](Cc2ccc(O)cc2)NC(=O)[C@H](CCC(N)=O)NC(=O)[C@@H](N)CSSC[C@@H](C(=O)O)NC(=O)[C@H](CCCCN)NC1=O
0.033

And what about the molecule CC(C)C[C@@H]1NC(=O)[C@H](CCCNC(=N)N)NC(=O)[C@H](CCCNC(=N)N)NC(=O)[C@H]([C@@H](C)O)NC(=O)[C@H](CO)NC(=O)[C@H](CC(C)C)NC(=O)[C@H](CC(=O)O)NC(=O)[C@H](Cc2ccccc2)NC(=O)[C@H](CCC(N)=O)NC(=O)CCCCCCNC(=O)[C@H](CCCCN)NC1=O ?
0.12

And what about the molecule CC(C)C[C@@H]1NC(=O)[C@H](CCCNC(=N)N)NC(=O)[C@H](CCCNC(=N)N)NC(=O)[C@H]([C@@H](C)O)NC(=O)[C@H](CO)NC(=O)[C@H](CC(C)C)NC(=O)[C@H](CC(=O)O)NC(=O)[C@H](C(c2ccccc2)c2ccccc2)NC(=O)[C@H](CCC(N)=O)NC(=O)[C@@H](N)CSSC[C@@H](C(=O)O)NC(=O)[C@H](CCCCN)NC1=O ?
0.024
